method-notes: Human HepG2 cell viability assay in 384 well format
Format: toxicity, cell-based
Design: dose 125 nL, time 70.5 hour; concentration not given beside the values
condition-summary: HepG2 cells, read-out: Inhibition
metric: cytotoxicity at 70.5 h (%)
State just the number; it will be interpreted in %.

Sample records with cytotoxicity at 70.5 h:
The molecule O=C(c1cccnc1)N1CCc2[nH]nc(Nc3ccccc3)c2C1 showed cytotoxicity at 70.5 h equal to -6.1

The molecule Cc1ccc(C(=O)N2CCC(c3nccn3C(C)C)CC2)c(=O)[nH]1 showed cytotoxicity at 70.5 h equal to -6.37

The molecule Fc1cnccc1CN1CCCC2(CCN(c3ncccn3)CC2)C1 showed cytotoxicity at 70.5 h equal to -5.15

The molecule Cn1cc(C2CCCN2C(=O)CCCOc2ccc(F)cc2)cn1 (stereo not drawn) showed cytotoxicity at 70.5 h equal to 15.6

The molecule COc1cc(N2C[C@@H]3COC[C@]3(COc3cccnc3)C2)ncn1 showed cytotoxicity at 70.5 h equal to -5

The molecule CCc1nc(CN2CCCN(c3ncnc4ccccc34)CC2)no1 showed cytotoxicity at 70.5 h equal to 40.8

Next:
The molecule O=C(Nc1ccc(F)c(-n2cccc2)c1)NC1(CCO)CCOCC1 showed cytotoxicity at 70.5 h equal to -10.8

The molecule O=C(c1nn(-c2ccccc2F)cc1O)N1CCC2(CC1)OCCO2 showed cytotoxicity at 70.5 h equal to 13.2

The molecule COc1ncc(-c2cc(NC3CCCC3)nc3[nH]ccc23)c(OC)n1 showed cytotoxicity at 70.5 h equal to -12

The molecule Cc1csc(N2CCCN(C(=O)C(C)n3cncn3)CC2)n1 (stereo not drawn) showed cytotoxicity at 70.5 h equal to 1.24

The molecule Cc1cccc(C(C(=O)NC(C)(C)CN2CCOCC2)N(C)C)c1 (stereo not drawn) showed cytotoxicity at 70.5 h equal to 25.2

The molecule NC(=O)CSc1nnc2n1N=CN(c1ccccc1F)C2 showed cytotoxicity at 70.5 h equal to -6.75

The molecule CN(CC1(CO)CC1)C(=O)C1CCC(=O)N(Cc2ccc(Cl)cc2)C1 (stereo not drawn) showed cytotoxicity at 70.5 h equal to -1.51

The molecule Cn1ccnc1CN1CC[C@@H]2[C@@H](CCC(=O)N2CCc2c[nH]cn2)C1 showed cytotoxicity at 70.5 h equal to 27.2
